I'd be grateful if you could share measured kinact/KI for these entries.
# tested.system: human leukocyte elastase (HLE) (Homo sapiens, UniProt P08246)
# Construct: purchased Elastin Products Co., Owensville, Mo
# Sequence (P08246 30-247 limits assumed): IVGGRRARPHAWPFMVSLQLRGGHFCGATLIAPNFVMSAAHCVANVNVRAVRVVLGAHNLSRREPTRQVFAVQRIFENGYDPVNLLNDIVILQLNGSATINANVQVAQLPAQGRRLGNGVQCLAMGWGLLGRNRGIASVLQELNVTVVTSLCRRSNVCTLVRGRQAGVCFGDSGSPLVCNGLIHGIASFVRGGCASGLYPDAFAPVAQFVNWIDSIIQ
# procedure.details: Inactivation of human leukocyte elastase (kobs/[I])
# Type: biochemical
# experimental.conditions: Table 6

Give measured kinact/KI for every item shown.
1. CC(C)C[C@H]1C(=O)N(CS(=O)(=O)c2ccccc2)S(=O)(=O)N1CC(=O)OC(C)(C)C
2. CC(C)C[C@H]1C(=O)N(CS(C)(=O)=O)S(=O)(=O)N1C [Compound 18E]
3. CC(C)C[C@H]1C(=O)N(CS(=O)(=O)c2ccccc2)S(=O)(=O)N1CC(=O)OCc1ccccc1
4. CCCCN1[C@@H](CC(C)C)C(=O)N(CS(=O)(=O)c2ccccc2)S1(=O)=O [Compound 16E]
5. CC(C)C[C@H]1C(=O)N(CS(=O)(=O)c2ccccc2)S(=O)(=O)N1C
6. CC(C)C[C@@H]1NS(=O)(=O)N(CS(=O)(=O)c2ccccc2)C1=O

Reply |
1. 2020 M⁻¹ s⁻¹
2. 4590 M⁻¹ s⁻¹
3. 1710 M⁻¹ s⁻¹
4. 10600 M⁻¹ s⁻¹
5. 7580 M⁻¹ s⁻¹
6. 190 M⁻¹ s⁻¹

---

I'd be grateful if you could share measured kinact/KI for these entries.
# tested.system: human leukocyte elastase (HLE) (Homo sapiens)
# Construct: purchased Elastin Products Co., Owensville, Mo
# procedure.details: Inactivation of human leukocyte elastase (kobs/[I])
# Assay type: biochemical
# experimental.conditions: Table 1A
One number for each entry, in M⁻¹ s⁻¹.

CC(C(=O)OCN1C(=O)C(Cc2ccccc2)CS1(=O)=O)c1cccc(C(=O)c2ccccc2)c1 (centres unmarked) | 210
O=C(Cc1ccccc1Nc1c(Cl)cccc1Cl)OCN1C(=O)C(Cc2ccccc2)CS1(=O)=O (centres unmarked) | 30
Nc1ccc(O)c(C(=O)OCN2C(=O)C(Cc3ccccc3)CS2(=O)=O)c1 (centres unmarked) | 470
CC(C)Cc1ccc(C(C)C(=O)OCN2C(=O)C(Cc3ccccc3)CS2(=O)=O)cc1 (centres unmarked) | 160

Ask | Entry CC(=O)Oc1ccccc1C(=O)OCN1C(=O)C(Cc2ccccc2)CS1(=O)=O (centres unmarked) : reported kinact/KI = ?
Reply | 830

---

# tested.system: cathepsin G (Cath G) (Homo sapiens, UniProt P08311)
# Construct: purchased Athens Research and Technology, Athens, Ga
# Sequence (P08311 21-244 limits assumed): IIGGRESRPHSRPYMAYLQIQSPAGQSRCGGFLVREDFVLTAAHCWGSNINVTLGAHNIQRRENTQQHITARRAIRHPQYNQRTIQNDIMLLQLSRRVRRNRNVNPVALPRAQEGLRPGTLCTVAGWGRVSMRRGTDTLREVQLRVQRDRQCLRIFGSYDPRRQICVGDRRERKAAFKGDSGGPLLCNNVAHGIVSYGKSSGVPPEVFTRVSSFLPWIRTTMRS
# procedure.details: Inactivation of human leukocyte cathepsin G (kobs/[I])
# Assay type: biochemical
# experimental.conditions: pH 7.5; Table 6
measured.property: kinact/KI (M⁻¹ s⁻¹)
One number for each entry, in M⁻¹ s⁻¹.

# annotated cases, reported kinact/KI shown
CC(C)(C)OC(=O)CN1[C@@H](Cc2ccccc2)C(=O)N(CS(=O)(=O)c2ccccc2)S1(=O)=O [Compound 14E] | 1130
CN1[C@@H](Cc2ccccc2)C(=O)N(CS(=O)(=O)c2ccccc2)S1(=O)=O [Compound 11E] | 130
O=C1[C@H](Cc2ccccc2)NS(=O)(=O)N1CCl [Compound 8E] | 30

Here is the next item to consider.
Ask | Entry O=C1[C@H](Cc2ccccc2)N(S(=O)(=O)c2ccccc2)S(=O)(=O)N1CS(=O)(=O)c1ccccc1 [Compound 1E] : reported kinact/KI = ?
Reply | 830
